system: SW480; assay: TCF/Wnt firefly luciferase reporter signal relative to plate median (fraction of plate median); higher = higher Wnt reporter signal; conditions: 10 µM; treatment time 24 h; reporter: 7TFP
Structures can show the parent of a compound that is named as a salt.
Collected TCF/Wnt firefly luciferase reporter signal values appear next to each entry.
METRIC_NAME: TCF/Wnt firefly luciferase reporter signal

1) O=C(NC[C@H](O)CO)c1ccncc1Nc1ccc(I)cc1F | 2.17
2) O=C(c1ccc(/C=C/c2n[nH]c3ccccc23)cc1)N1CCNCC1 | 1.53
3) O=C(Nc1cccc(Nc2ncc(Br)c(NCCc3cnc[nH]3)n2)c1)N1CCCC1 | 1.33
4) CCCCCCCCCCCCc1ccc(S(=O)(=O)Nc2nncs2)cc1 | 0.959
5) COc1cc2ncnc(Nc3cccc(Br)c3)c2cc1OC | 0.838
6) CNC(=O)c1cccc(-c2ccc3c(N4CCOC[C@@H]4C)nc(N4CCOC[C@@H]4C)nc3n2)c1 | 0.629
7) Cc1ccc(NC(=O)c2cccc(N(C)C)c2)cc1NC(=O)c1ccc(O)cc1 | 0.955
8) O=C(Nc1ccc(OC(F)(F)F)cc1)c1sccc1NCc1ccnc2ccccc12 | 0.864
9) Oc1cccc(-c2nc(N3CCOCC3)c3oc4ncccc4c3n2)c1 | 1.1
10) O=C1NC(=O)/C(=C/c2ccc3nccc(-c4ccncc4)c3c2)S1 | 0.572
11) Cc1ccc(NC(=O)c2ccc(CN3CCN(C)CC3)cc2)cc1Nc1nccc(-c2cccnc2)n1 [Imatinib Mesylate] | 1.73
12) OCCn1cc(-c2cnc3nnn(Cc4ccc5ncccc5c4)c3n2)cn1 | 1.05
13) CS(=O)(=O)N1CCN(Cc2cc3nc(-c4cccc5[nH]ncc45)nc(N4CCOCC4)c3s2)CC1 | 1.04
14) CC(C)(C)c1nc(-c2cccc(NS(=O)(=O)c3c(F)cccc3F)c2F)c(-c2ccnc(N)n2)s1 | 1.75
15) Nc1ccc(C(=O)Nc2cccc(-c3nc(N4CCOCC4)c4oc5ncccc5c4n3)c2)cn1 | 0.827
16) CC(=O)Nc1cccc(-n2c(=O)n(C3CC3)c(=O)c3c(Nc4ccc(I)cc4F)n(C)c(=O)c(C)c32)c1 | 2.02

* * *

Item-by-item account of cell viability
test system: DLD1; test: cell viability (CellTiter-Glo) relative to plate median (fraction of plate median); higher = more viable cells; settings: 5 µM; treatment time 24 h; reporter: 7TFP
METRIC_NAME: cell viability

1) COc1cc2c(cc1OC)-c1cc3ccc(OC)c(OC)c3c[n+]1CC2 | 0.983
2) O=c1cc(-c2cc(O)c(O)c(O)c2)oc2cc(O)cc(O)c12 | 1.02
3) CC(Cc1cccc(C(F)(F)F)c1)NCCOC(=O)c1ccccc1 (centres undefined) | 0.984
4) COc1c(-c2coc3cc4c(cc3c2=O)CC(O)C(C)(C)O4)ccc2c1C=CC(C)(C)O2 (centres undefined) | 0.973

* * *

tested on: DLD1; test: TCF/Wnt firefly luciferase reporter signal relative to plate median (fraction of plate median); higher = higher Wnt reporter signal; details: 5 µM; treatment time 24 h; reporter: 7TFP
Listing of entries alongside the reported TCF/Wnt firefly luciferase reporter signal.
METRIC_NAME: TCF/Wnt firefly luciferase reporter signal

1) C=CCSSSCC=C | 1.02
2) O=c1ccc2cc(O)c(O)cc2o1 | 0.994
3) COc1cccc2c1CCC1CC(=O)CC[C@]21C (stereo not given in full) | 0.972
4) CCCc1cc(=O)[nH]c(=S)[nH]1 | 0.98
5) CC[C@H]1OC(=O)[C@H](C)[C@@H](O[C@H]2C[C@@](C)(OC)[C@@H](O)[C@H](C)O2)[C@H](C)[C@@H](O[C@@H]2O[C@H](C)C[C@H](N(C)C)[C@H]2O)[C@](C)(OC)C[C@@H](C)C(=O)[C@H](C)[C@@H](O)[C@]1(C)O | 0.996
6) C=C1C2CC[C@@]3(C)[C@H](c4ccoc4)OC(=O)C[C@]13O[C@H]1CC(O)C(C)(C)C(CC(=O)OC)[C@@]21C (stereo partly drawn) [3alpha-HYDROXY-3-DEOXYANGOLENSIC ACID METHYL ESTER] | 1.05
7) O=c1cc(-c2ccc(O)cc2)oc2cc(O)cc(O)c12 | 1.1
8) CN1CCc2c(c3ccccc3n2Cc2ccccc2)C1 | 1.05
9) COc1cc(CO)cc2c1C(=O)c1c(O)cc(O)cc1C2=O [Carviolin] | 0.811
10) O=c1occ(C(O)CO)c2cccc(O)c12 (stereo not given) [Oospoglycol] | 1.1
11) CCCNC(C)C(=O)Nc1ccccc1C (stereo not given) | 0.912
12) CCN(Cc1ccncc1)C(=O)C(CO)c1ccccc1 (stereo not given) | 1.04
13) CC1CC2C3CCC4=CC(=O)C=CC4(C)C3(F)C(O)CC2(C)C1C(=O)CO (stereo not given) | 1.05
14) O=C1NC(Cc2ccc(O)cc2)C(=O)N2CCCC12 (stereo not given) [Cyclo(tyrosylprolyl)] | 0.768
15) CN1CCC(OC(c2ccccc2)c2ccccc2)CC1 | 1.12
16) CC(=O)O[C@@H]1CO[C@H]2O[C@H]3[C@@H](C(C=O)=C[C@H](O)[C@@H]4C5=C(C(C)C)CC[C@]5(C)CC[C@@]34C)[C@@]2(O)C1=O [Striatal B] | 1
17) CC(CCC(=O)O)C1CCC2C3CCC4CC(O)CCC4(C)C3C=CC12C (stereo not given) | 0.902
18) CNCC[C@@H](Oc1ccccc1C)c1ccccc1 | 1.02
19) Nc1nc(=O)c2nc(CNc3ccc(C(=O)N[C@@H](CCC(=O)O)C(=O)O)cc3)cnc2[nH]1 | 1.01
20) CC(=O)OC[C@H]1O[C@@H](Oc2cc(OC(C)=O)c3c(=O)cc(-c4ccc(OC(C)=O)cc4)oc3c2)[C@H](OC(C)=O)[C@@H](OC(C)=O)[C@@H]1OC(C)=O | 1.07
21) Nc1ccc(S(=O)(=O)O)cc1.Nc1ccc(S(=O)(=O)O)cc1.[Zn] | 1.03
22) CCCCCCNC(=O)n1cc(F)c(=O)[nH]c1=O | 0.971
23) CC(=O)O[C@@H]1CC(=O)[C@@]2(C)C(CC(=O)[C@]3(C)C2CC[C@@]2(C)[C@H](c4ccoc4)OC(=O)C4OC423)C1(C)C (stereo not given in full) | 0.986
24) O=C(O)c1ccccc1OP(=O)(O)O | 0.939
25) CO[C@H]1[C@H](O)[C@@H](O)[C@H](O)[C@H](O)[C@H]1O | 1.11

* * *

test system: DLD1; experiment: cell viability (CellTiter-Glo) relative to plate median (fraction of plate median); higher = more viable cells; settings: 5 µM; treatment time 24 h; reporter: 7TFP
METRIC_NAME: cell viability

1. Oc1c(Br)cc(Br)c2cccnc12 | 1.02
2. CCOC(=O)[C@H](CCc1ccccc1)N[C@@H](C)C(=O)N1Cc2ccccc2C[C@H]1C(=O)O | 0.99
3. CCOC(=O)NNc1nncc2ccccc12 | 0.981
4. CC(=O)O[C@H]1C[C@@H](OC(C)=O)C(C)(C)C2CC(=O)[C@]3(C)C(CC[C@@]4(C)[C@H](C(=O)O)OC(=O)C5OC543)[C@]21C (some centres undefined) | 0.985

* * *

test system: DLD1; assay: TCF/Wnt firefly luciferase reporter signal relative to plate median (fraction of plate median); higher = higher Wnt reporter signal; details: 5 µM; treatment time 24 h; reporter: 7TFP
METRIC_NAME: TCF/Wnt firefly luciferase reporter signal

1. O=c1cc[nH]c(=S)[nH]1 [Thiouracil] | 0.944
2. CC(CN1c2ccccc2Sc2ccccc21)N(C)C (centres undefined) | 1.05
3. C/C=C(\C)C(=O)O[C@@H]1c2c(ccc3ccc(=O)oc23)OC(C)(C)[C@@H]1OC(C)=O | 0.997
4. C=C(C)[C@@H]1CC[C@]2(C(=O)O[C@@H]3O[C@H](CO[C@@H]4O[C@H](CO)[C@@H](O[C@@H]5O[C@@H](C)[C@H](O)[C@@H](O)[C@H]5O)[C@H](O)[C@H]4O)[C@@H](O)[C@H](O)[C@H]3O)CC[C@]3(C)[C@H](C[C@@H](O)[C@@H]4[C@@]5(C)[C@@H](CC(=O)O)OC(C)(C)[C@@H]5CC[C@]43C)[C@@H]12 [Isochiisanoside (6)] | 0.953

* * *

Below is a list of entries, each paired with its recorded cell viability value.
tested on: DLD1; assay: cell viability (CellTiter-Glo) relative to plate median (fraction of plate median); higher = more viable cells; conditions: 10 µM; treatment time 24 h; reporter: TCF4/Wnt
Structures can show the parent of a compound that is named as a salt.
METRIC_NAME: cell viability

1. CC[C@H](Nc1ncnc2[nH]cnc12)c1nc2cccc(F)c2c(=O)n1-c1ccccc1 | 0.999
2. CC1(C)CNc2cc(NC(=O)c3cccnc3NCc3ccncc3)ccc21 [Motesanib Diphosphate] | 0.978
3. COc1cc2ncnc(Nc3ccc(O)c(Br)c3)c2cc1OC | 0.98
4. Clc1ccc(Nc2nnc(Cc3ccncc3)c3ccccc23)cc1 [Vatalanib dihydrochloride (PTK787)] | 0.978
5. C#Cc1cccc(Nc2ncnc3cc(OCCOC)c(OCCO)cc23)c1 | 0.988
6. Cc1[nH]c(/C=C2\C(=O)Nc3ccccc32)c(C)c1CCC(=O)O | 0.997
7. COc1cccc2cc(-c3nc([C@H]4CC[C@H](C(=O)O)CC4)n4ncnc(N)c34)[nH]c12 | 1.02
8. CC(C)(C)c1nc(-c2cccc(NS(=O)(=O)c3c(F)cccc3F)c2F)c(-c2ccnc(N)n2)s1 | 0.981
9. CCN(CC)CCCCNc1ncc2cc(-c3cc(OC)cc(OC)c3)c(NC(=O)NC(C)(C)C)nc2n1 | 1.01
10. CC(C)n1nc(-c2cc3cc(O)ccc3[nH]2)c2c(N)ncnc21 | 0.984
11. COc1cc2ncnc(Nc3cccc(Cl)c3)c2cc1OC | 1
12. NCC(=O)Nc1ccc(-n2nc(C(F)(F)F)cc2-c2ccc3c(ccc4ccccc43)c2)cc1 | 0.998
